# System: M. simiae
# experimental_protocol: MIC (CLSI broth dilution), slow-growing NTM isolates
# Format: cell-based
# run_parameters: isolate 15, Other; read-out: MIC
Readings of MIC for the listed compounds

Illustrative cases are given below, each with its answer.
{"chemical_string": "CC(=O)NC[C@H]1CN(c2ccc(N3CCOCC3)c(F)c2)C(=O)O1", "measured_target": "M. simiae", "MIC": "> 32 µg/mL"}
{"chemical_string": "CO[C@H]1/C=C/O[C@@]2(C)Oc3c(C)c(O)c4c(O)c(c(/C=N/N5CCN(C)CC5)c(O)c4c3C2=O)NC(=O)/C(C)=C\\C=C\\[C@H](C)[C@H](O)[C@@H](C)[C@@H](O)[C@@H](C)[C@H](OC(C)=O)[C@@H]1C", "measured_target": "M. simiae", "MIC": "> 2 µg/mL"}
{"chemical_string": "CN(C)c1ccc(O)c2c1C[C@H]1C[C@H]3[C@H](N(C)C)C(O)=C(C(N)=O)C(=O)[C@@]3(O)C(O)=C1C2=O", "measured_target": "M. simiae", "MIC": "> 8 µg/mL"}
{"chemical_string": "CN(C)c1cc(CNCC(C)(C)C)c(O)c2c1C[C@H]1C[C@H]3[C@H](N(C)C)C(O)=C(C(N)=O)C(=O)[C@@]3(O)C(O)=C1C2=O", "measured_target": "M. simiae", "MIC": "> 16 µg/mL"}
{"chemical_string": "CO[C@H]1/C=C/O[C@@]2(C)Oc3c(C)c(O)c4c(c3C2=O)C2=NC3(CCN(CC(C)C)CC3)NC2=C(NC(=O)/C(C)=C\\C=C\\[C@H](C)[C@H](O)[C@@H](C)[C@@H](O)[C@@H](C)[C@H](OC(C)=O)[C@@H]1C)C4=O", "measured_target": "M. simiae", "MIC": "> 2 µg/mL"}

For the next question, use this compound.
Q: Can you share its MIC? I mean this compound: COc1c(N2C[C@@H]3CCCN[C@@H]3C2)c(F)cc2c(=O)c(C(=O)O)cn(C3CC3)c12
Result: 8 µg/mL

* * *

# Test system: M. mucogenium group
# experimental_protocol: MIC (CLSI broth dilution), RGM isolates
# Assay type: cell-based
# run_parameters: isolate 41, M. mucogenicum group, M. mucogenicum; read-out: MIC
Readings of MIC for the listed molecules
Unit mg/L implied. Number only.

{"molecule": "COc1c(N2C[C@@H]3CCCN[C@@H]3C2)c(F)cc2c(=O)c(C(=O)O)cn(C3CC3)c12 [MXF, moxifloxacin]", "observed_result": 0.25}

For the next question, use this molecule.
Q: Can you share its MIC? I mean this molecule: CN(C)c1cc(CNCC(C)(C)C)c(O)c2c1C[C@H]1C[C@H]3[C@H](N(C)C)C(O)=C(C(N)=O)C(=O)[C@@]3(O)C(O)=C1C2=O [OMC]
Result: 1

* * *

# experimental_protocol: Intra-pulmonary steady-state concentrations (plasma, ELF, alveolar cells) after multiple IV doses in healthy adult subjects
# Type: in vivo, human
# run_parameters: human, in vivo, Alveolar Macrophages (AM) concentration (mean ± SD)
assay_readout: concentration at 4 h (ng/mL)
Unit ng/mL implied. Number only.

Q: Can you share its concentration at 4 h? I mean this compound: CN(C)c1cc(CNCC(C)(C)C)c(O)c2c1C[C@H]1C[C@H]3C(N(C)C)C(O)=C(C(N)=O)C(=O)[C@@]3(O)C(O)=C1C2=O (stereo partly shown)
Result: 18000
